Tested on: DLD-1 colon
Assay Name: NCI tumour cell line growth inhibition, 48 h
Kindly state TGI for each of the entries shown.

Data point: "Cc1cc2c(=O)n(-c3ccc(F)cc3)c(C)nc2c(C(=O)O)c1C" ; TGI = > 100 µM

Value of measured TGI for the entry "CCC[CH2][Sn]([CH2]CCC)([O]C(=O)c1cc(F)cc(F)c1)[O]C(=O)c1cc(F)cc(F)c1" : 2 µM

get_value(item= N#CC(C(=O)/C(=N\Nc1nc(=S)[nH]n1N)C(C#N)c1ccc(Cl)cc1)c1ccc(Cl)cc1 (stereo not given) , readout=TGI) returns > 100 µM

Short answer for "CC(C)(C)NN=C1C(C)(C)C(=NNC(C)(C)C)C1(C)C" : TGI was > 100 µM

// sample "Brc1ccc(-c2nnc(-c3nn(-c4ccccc4)c4nc5ccccc5nc34)o2)cc1" , its TGI was > 100 µM

So for CCC1=CC2CN3CCc4c([nH]c5ccccc45)C(C(=O)OC)(C2)C13 (stereo not given) , the logged TGI turned out to be 87.5 µM

Lab book: TGI of "Cc1ccc(-c2nc(SCC(=O)O)n[nH]2)cc1" noted as > 100 µM

Lookup result for "CCNCC(=O)O[C@]1(CC)C(=O)OCc2c1cc1n(c2=O)Cc2cc3ccccc3nc2-1" ; measured TGI: > 100 µM

TGI measured on COC1=CC(=O)[C@H]2[C@H](C)C(c3ccccc3)[C@@]2(C)C1=O (stereo not given in full) = > 100 µM

The molecule identified as "CC(C)(C)c1nc2c(o1)C(=O)c1ccccc1C2=O" registered its TGI at 14.5 µM

====

I'd appreciate it if you could supply TGI values for the items below.
System: HT29 colon
Assay Name: NCI tumour cell line growth inhibition, 48 h
Respond numerically; units are µM and should not be typed.

The reported value for "COc1cc(CCCOC(=O)/C=C/c2ccc(O)c(O)c2)cc(O)c1O" in terms of TGI is 98.7

Record summary for NC(CSC(c1ccccc1)(c1ccccc1)c1ccc(Cl)cc1)C(=O)O (centres undefined) : reported TGI = 6.92

Lab note: measured TGI of "CC(C)NC(=O)CN1CCN(C2=CC(=O)c3c(O)ccc(O)c3C2=O)CC1" was 12.3

Noted for "COc1ccc(/C=C2\C[C@H]3[C@@H]4CCC5=C[C@@H](N6CCCC6)CC[C@]5(C)[C@H]4CC[C@]3(C)[C@H]2O)cc1" : its TGI reads 3.15

The reported TGI of the molecule "COc1ccccc1-n1c(-c2cc(O)ccc2C)cn2c3c(=O)[nH]c(=O)n(C)c3nc12" was 8.12

Lab note: "COc1cc2c(cc1OC)-c1cc3cc(OC)c(OC)cc3n1CC2" gave TGI of 56.3

For "O=C(NNC(=S)Nc1ccccc1)c1ccccc1Nc1ccccc1C(=O)NNC(=S)Nc1ccccc1" the molecule record lists TGI as 76.6

// recorded TGI for COC(=O)C1(Cc2ccc3c(c2)CCC3)Cc2ccc3c(c2C1O)CCC3 (centres undefined) : 31.6

GET /value?item= CCCC/C=C/C1Cc2ccccc2CN1S(=O)(=O)c1ccc(C)cc1 (centres undefined) &field=TGI returns 21.7

response.value for COC1(OC)CC2C=C(S(=O)(=O)c3ccccc3)C1N(Cc1ccccc1)C2=O (centres undefined) (field: TGI) = 93.7

The reported value for Cc1cccc2c1Oc1cc(Cl)ccc1C2NC(=O)CCN1CCN(CCO)CC1 (centres undefined) in terms of TGI is 29.8

Reported TGI for "ClC1=C(Cl)C(Cl)=C(Cl)C1=C/C=C/c1ccccc1" was 1.16

So, "CN(C)c1ccc(N=Cc2c([O-])ccc3ccccc23)cc1.[C-]#[O+].[C-]#[O+].[Ir]" ? Its TGI was 40.7
